Measured minimal inhibitory concentration (M.I.C.), listed per entry for reference.
- Tested on: P. rettgeri TN 338
- PROTOCOL_NOTES: Minimal inhibitory concentration (M.I.C.), agar dilution method
- Format: cell-based, Proteus rettgeri
- SETTINGS: TSA, inoculum 10^7 /ml
- Source text: (a) Determination of minimal inhibitory concentrations (Tables 1 to 8): Procedure: agar dilution method
Answer with the value's number alone.

{"COMPOUND": "CCCNC(=O)O/N=C(\\C(=O)NC1C(=O)N2C(C(=O)O)=C(C)CSC12)c1csc(=N)[nH]1 (centres unmarked)", "VALUE_MEASURED": 0.1}

Inquiry: Requested field: minimal inhibitory concentration (M.I.C.). Item: CC(=O)OCC1=C(C(=O)[O-])N2C(=O)C(NC(=O)Cc3cccs3)[C@H]2SC1.[Na+] (some centres unmarked) [Cephalothin, reference compound]
Reply text: 1.56

###

- System: P. rettgeri TN 338
- PROTOCOL_NOTES: Minimal inhibitory concentration (M.I.C.), agar dilution method
- Type: cell-based, Proteus rettgeri
- SETTINGS: TSA, inoculum 10^7 /ml
Readings of minimal inhibitory concentration (M.I.C.) for the listed compounds

Inquiry: Can you share its minimal inhibitory concentration (M.I.C.)? I mean this compound: CNC(=O)O/N=C(\C(=O)NC1C(=O)N2C(C(=O)O)=C(CSc3nnc(C)s3)CSC12)c1csc(=N)[nH]1 (stereo not drawn)
Reply text: ≤ 0.05

Inquiry: I would be grateful if you could share the reported minimal inhibitory concentration (M.I.C.) for CCCCNC(=O)O/N=C(\C(=O)NC1C(=O)N2C(C(=O)O)=C(CSc3nnnn3C)CSC12)c1csc(=N)[nH]1 (stereo not drawn) .
Reply text: ≤ 0.012

Inquiry: Quick one: minimal inhibitory concentration (M.I.C.) of CC(=O)OCC1=C(C(=O)O)N2C(=O)C(NC(=O)/C(=N\OC(=O)NC3CCCCC3)c3csc(=N)[nH]3)C2SC1 (stereo not drawn) ?
Reply text: ≤ 0.012

###

As shown below, each of these compounds has a reported minimal inhibitory concentration (M.I.C.) value.
- Tested on: S. aureus 1840
- PROTOCOL_NOTES: Minimal inhibitory concentration (M.I.C.), agar dilution method
- Type: cell-based, Staphylococcus aureus
- SETTINGS: TSA, inoculum 10^7 /ml
Note: the reply should be a number with no unit written.

{"COMPOUND": "CCCCNC(=O)O/N=C(\\C(=O)NC1C(=O)N2C(C(=O)O)=C(COC(C)=O)CSC12)c1csc(=N)[nH]1 (stereo not shown) [Example II - 20]", "TARGET_OR_SYSTEM": "S. aureus 1840", "VALUE_MEASURED": 1.56}
{"COMPOUND": "CNC(=O)O/N=C(\\C(=O)NC1C(=O)N2C(C(=O)O)=C(CSc3nc(CC(=O)O)cs3)CSC12)c1csc(=N)[nH]1 (stereo not shown) [Example IV - 7]", "TARGET_OR_SYSTEM": "S. aureus 1840", "VALUE_MEASURED": 12.5}
{"COMPOUND": "CCCCNC(=O)O/N=C(\\C(=O)NC1C(=O)N2C(C(=O)O)=C(C)CSC12)c1csc(=N)[nH]1 (stereo not shown) [Example II - 23]", "TARGET_OR_SYSTEM": "S. aureus 1840", "VALUE_MEASURED": 12.5}

Inquiry: Query: minimal inhibitory concentration (M.I.C.); subject: CNC(=O)O/N=C(\C(=O)NC1C(=O)N2C(C(=O)O)=C(C)CSC12)c1csc(=N)[nH]1 (stereo not shown) [Example II - 6]
Reply text: 50

###

- System: S. aureus 209P
- PROTOCOL_NOTES: Minimal inhibitory concentration (M.I.C.), agar dilution method
- Assay type: cell-based, Staphylococcus aureus
- SETTINGS: TSA, inoculum 10^7 /ml
QUANTITY_NAME: minimal inhibitory concentration (M.I.C.)
Kindly provide the number alone.

# example entries with known answers
{"COMPOUND": "CCCNC(=O)O/N=C(\\C(=O)NC1C(=O)N2C(C(=O)O)=C(C)CSC12)c1csc(=N)[nH]1 (stereo not shown)", "VALUE_MEASURED": 12.5}
{"COMPOUND": "CCNC(=O)O/N=C(\\C(=O)NC1C(=O)N2C(C(=O)O)=C(CSc3nnnn3C)CSC12)c1csc(=N)[nH]1 (stereo not shown)", "VALUE_MEASURED": 1.56}
{"COMPOUND": "CNC(=O)O/N=C(\\C(=O)NC1C(=O)N2C(C(=O)O)=C(CSc3nnc(C)o3)CSC12)c1csc(=N)[nH]1 (stereo not shown)", "VALUE_MEASURED": 1.56}
{"COMPOUND": "CNC(=O)O/N=C(\\C(=O)NC1C(=O)N2C(C(=O)O)=C(CSc3nnnn3C)CSC12)c1csc(=N)[nH]1 (stereo not shown)", "VALUE_MEASURED": 1.56}
{"COMPOUND": "CNC(=O)O/N=C(\\C(=O)NC1C(=O)N2C(C(=O)O)=C(CSc3nnnn3CCO)CSC12)c1csc(=N)[nH]1 (stereo not shown)", "VALUE_MEASURED": 3.13}
{"COMPOUND": "CCCCNC(=O)O/N=C(\\C(=O)NC1C(=O)N2C(C(=O)O)=C(COC(N)=O)CSC12)c1csc(=N)[nH]1 (stereo not shown)", "VALUE_MEASURED": 1.56}

Inquiry: Entry under review: CNC(=O)O/N=C(\C(=O)NC1C(=O)N2C(C(=O)O)=C(CSc3cnn[nH]3)CSC12)c1csc(=N)[nH]1 (stereo not shown) . Reported minimal inhibitory concentration (M.I.C.)?
Reply text: 3.13

Inquiry: Field request: minimal inhibitory concentration (M.I.C.) | item: CNC(=O)O/N=C(\C(=O)NC1C(=O)N2C(C(=O)O)=C(C)CSC12)c1csc(=N)[nH]1 (stereo not shown)
Reply text: 50

Inquiry: Any idea what its minimal inhibitory concentration (M.I.C.) is? The compound is CNC(=O)O/N=C(\C(=O)NC1C(=O)N2C(C(=O)O)=C(COC(N)=O)CSC12)c1csc(=N)[nH]1 (stereo not shown)
Reply text: 3.13

Inquiry: What minimal inhibitory concentration (M.I.C.) value was documented for this compound, CC(=O)OCC1=C(C(=O)O)N2C(=O)C(NC(=O)/C(=N\OC(=O)NC3CCCCC3)c3csc(=N)[nH]3)C2SC1 (stereo not shown) ?
Reply text: 0.78

Inquiry: Need minimal inhibitory concentration (M.I.C.), item CCCNC(=O)O/N=C(\C(=O)NC1C(=O)N2C(C(=O)O)=C(CSc3nnnn3C)CSC12)c1csc(=N)[nH]1 (stereo not shown)
Reply text: 1.56

Inquiry: Data request, read-out minimal inhibitory concentration (M.I.C.), for CCNC(=O)O/N=C(\C(=O)NC1C(=O)N2C(C(=O)O)=C(CSc3nnc(C)s3)CSC12)c1csc(=N)[nH]1 (stereo not shown)
Reply text: 0.78

Inquiry: What does the data say about its minimal inhibitory concentration (M.I.C.)? Entry: Cc1nnc(SCC2=C(C(=O)[O-])N3C(=O)C(NC(=O)Cn4cnnn4)[C@H]3SC2)s1.[Na+] (stereo partly shown) [Cefazolin, reference compound]
Reply text: 0.39

Inquiry: Look at this compound and give its reported minimal inhibitory concentration (M.I.C.). CNC(=O)O/N=C(\C(=O)NC1C(=O)N2C(C(=O)O)=C(CSc3nc(CC(=O)O)cs3)CSC12)c1csc(=N)[nH]1 (stereo not shown)
Reply text: 12.5

Inquiry: What measured minimal inhibitory concentration (M.I.C.) goes with CNC(=O)O/N=C(\C(=O)NC1C(=O)N2C(C(=O)O)=C(COC(C)=O)CSC12)c1csc(=N)[nH]1 (stereo not shown) ?
Reply text: 1.56

Inquiry: I'd like to know its minimal inhibitory concentration (M.I.C.). The compound in question is CCCNC(=O)O/N=C(\C(=O)NC1C(=O)N2C(C(=O)O)=C(COC(N)=O)CSC12)c1csc(=N)[nH]1 (stereo not shown)
Reply text: 1.56

Inquiry: Quick one: minimal inhibitory concentration (M.I.C.) of O=C(Cc1cccs1)N[C@@H]1C(=O)N2C(C(=O)[O-])=C(C[n+]3ccccc3)CS[C@H]12 [Cephaloridine, reference compound] ?
Reply text: 0.05

Inquiry: Looking for the measured minimal inhibitory concentration (M.I.C.) of CC(=O)OCC1=C(C(=O)O)N2C(=O)C(NC(=O)/C(=N\OC(=O)NC(C)C)c3csc(=N)[nH]3)C2SC1 (stereo not shown) , can you help?
Reply text: 1.56

Inquiry: // lookup minimal inhibitory concentration (M.I.C.) for CCNC(=O)O/N=C(\C(=O)NC1C(=O)N2C(C(=O)O)=C(COC(N)=O)CSC12)c1csc(=N)[nH]1 (stereo not shown)
Reply text: 3.13

###

- System: S. marcescens IFO 12648
- PROTOCOL_NOTES: Minimal inhibitory concentration (M.I.C.), agar dilution method
- Type: cell-based, Serratia marcescens
- SETTINGS: TSA, inoculum 10^7 /ml
Consider the following molecules and their measured minimal inhibitory concentration (M.I.C.) readings.
Reply with just the number.

{"MOLECULE": "CNC(=O)O/N=C(\\C(=O)NC1C(=O)N2C(C(=O)[O-])=C(C[n+]3ccc(C(N)=O)cc3)CSC12)c1csc(=N)[nH]1 (centres unmarked)", "VALUE_MEASURED": 3.13}
{"MOLECULE": "CC(=O)OCC1=C(C(=O)O)N2C(=O)C(NC(=O)/C(=N\\OC(=O)NC(C)C)c3csc(=N)[nH]3)C2SC1 (centres unmarked)", "VALUE_MEASURED": 6.25}
{"MOLECULE": "CNC(=O)O/N=C(\\C(=O)NC1C(=O)N2C(C(=O)O)=C(CSc3cnn[nH]3)CSC12)c1csc(=N)[nH]1 (centres unmarked)", "VALUE_MEASURED": 6.25}
{"MOLECULE": "CC(C)NC(=O)O/N=C(\\C(=O)NC1C(=O)N2C(C(=O)O)=C(COC(N)=O)CSC12)c1csc(=N)[nH]1 (centres unmarked)", "VALUE_MEASURED": 6.25}
{"MOLECULE": "CNC(=O)O/N=C(\\C(=O)NC1C(=O)N2C(C(=O)O)=C(COC(N)=O)CSC12)c1csc(=N)[nH]1 (centres unmarked)", "VALUE_MEASURED": 3.13}
{"MOLECULE": "CC(=O)OCC1=C(C(=O)O)N2C(=O)C(NC(=O)/C(=N\\OC(=O)NC3CCCCC3)c3csc(=N)[nH]3)C2SC1 (centres unmarked)", "VALUE_MEASURED": 6.25}
{"MOLECULE": "CCCNC(=O)O/N=C(\\C(=O)NC1C(=O)N2C(C(=O)O)=C(COC(C)=O)CSC12)c1csc(=N)[nH]1 (centres unmarked)", "VALUE_MEASURED": 6.25}
{"MOLECULE": "CCNC(=O)O/N=C(\\C(=O)NC1C(=O)N2C(C(=O)O)=C(CSc3nnnn3C)CSC12)c1csc(=N)[nH]1 (centres unmarked)", "VALUE_MEASURED": 3.13}

Consider the record given below.
Inquiry: Missing value: minimal inhibitory concentration (M.I.C.), S. marcescens IFO 12648, entry CNC(=O)O/N=C(\C(=O)NC1C(=O)N2C(C(=O)O)=C(CSc3nnc(C)s3)CSC12)c1csc(=N)[nH]1 (centres unmarked) . Fill in?
Reply text: 3.13
